Please respond with reported TGI for every item in the list.
Tested on: SK-MEL-5 melanoma
protocolSummary: NCI tumour cell line growth inhibition, 48 h

Q) What value of measured TGI is listed for O=c1n(CCCN2CCN(c3cccc(Cl)c3)CC2)nc2n1-c1ccc3ccccc3c1SC2 ?
A) > 100 µM

Q) Item under review: CNc1nnnn1C1OC(CO)C(O)C1O (stereo unspecified) . Reported TGI?
A) > 100 µM

Q) Sample CCc1ccc(CCC(=O)Nc2ncc(Cc3cc(Cl)ccc3Cl)s2)o1 — what was its TGI?
A) > 50 µM

Q) Any idea what its TGI is? The molecule is OC(c1ccsc1)c1cc2ccccc2s1 (stereo unspecified)
A) > 10 µM

Q) For the molecule COc1cc(CNc2nc3ccccc3nc2-c2cccs2)cc(OC)c1OC , what TGI is on record?
A) 28.8 µM

Q) Return reported TGI; argument: COC(=O)c1cc(C)n2c1CS[C@@H]2c1ccccc1
A) 44.3 µM

All values here come from PubChem BioAssay (NCI).
